study-target: MaxL homodimer (Homo sapiens, UniProt P61244 1-160)
Sequence (P61244 whole entry): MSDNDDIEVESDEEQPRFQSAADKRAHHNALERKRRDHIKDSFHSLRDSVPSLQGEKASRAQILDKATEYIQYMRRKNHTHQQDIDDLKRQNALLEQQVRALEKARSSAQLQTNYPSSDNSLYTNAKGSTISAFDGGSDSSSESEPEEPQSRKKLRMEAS
assay: universal protein-binding microarray (PBM); PBS-based mixture, 10 nM His-tagged protein dimer, 2% milk, 200 ng/uL BSA, 50 ng/uL salmon testes DNA, 0.02% TX-100; detection with Alexa 488 anti-His antibody;; high values mean tight binding;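 also: fluorescence intensity normalized to that of the highest-ranked 8-mer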
cond: protein: recombinant; tags: C-terminal His-tag (pET21a); chain copies: 2; dsDNA, one strand shown
Whole data set: some 33,000 sequences, median “normalized occupancy” near 0.075, cut for the highest 2% near 0.095. The entries come from a sample that favours the highest values as a whole.
measured-parameter: binding signal
Answer with the figure and its unit, nothing else.

>  <ordered-residues>
GCCATGCA

>  <study-target>
MaxL homodimer (Homo sapiens, UniProt P61244 1-160)

>  <endpoint-value>
0.0904 normalized occupancy

$$$$
>  <ordered-residues>
CGTACACA

>  <study-target>
MaxL homodimer (Homo sapiens, UniProt P61244 1-160)

>  <endpoint-value>
0.0813 normalized occupancy

$$$$
>  <ordered-residues>
CGCGTAAC

>  <study-target>
MaxL homodimer (Homo sapiens, UniProt P61244 1-160)

>  <endpoint-value>
0.0752 normalized occupancy

$$$$
>  <ordered-residues>
TTACTAAA

>  <study-target>
MaxL homodimer (Homo sapiens, UniProt P61244 1-160)

>  <endpoint-value>
0.0728 normalized occupancy

$$$$
>  <ordered-residues>
AATACATG

>  <study-target>
MaxL homodimer (Homo sapiens, UniProt P61244 1-160)

>  <endpoint-value>
0.0934 normalized occupancy

$$$$
>  <ordered-residues>
CTGTTATC

>  <study-target>
MaxL homodimer (Homo sapiens, UniProt P61244 1-160)

>  <endpoint-value>
0.078 normalized occupancy

$$$$
>  <ordered-residues>
CCGTGCAG

>  <study-target>
MaxL homodimer (Homo sapiens, UniProt P61244 1-160)

>  <endpoint-value>
0.0778 normalized occupancy

$$$$
>  <ordered-residues>
AACACGTT

>  <study-target>
MaxL homodimer (Homo sapiens, UniProt P61244 1-160)

>  <endpoint-value>
0.128 normalized occupancy

$$$$

[Q] Which binding signal is listed for `CATACATG` ?
[A] 0.0969 normalized occupancy

[Q] Next: `AACACGGA`
[A] 0.0756 normalized occupancy

###

study-target: MaxL homodimer (Homo sapiens, UniProt P61244 1-160)
assay: universal protein-binding microarray (PBM); PBS-based mixture, 10 nM His-tagged protein dimer, 2% milk, 200 ng/uL BSA, 50 ng/uL salmon testes DNA, 0.02% TX-100; detection with Alexa 488 anti-His antibody;; high values mean tight binding;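 also: fluorescence intensity normalized to that of the highest-ranked 8-mer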
cond: protein: recombinant; tags: C-terminal His-tag (pET21a); chain copies: 2; dsDNA, one strand shown
Whole data set: some 33,000 sequences, median “normalized occupancy” near 0.075, cut for the highest 2% near 0.095. This excerpt belongs to a sample that is enriched for the highest values.
measured-parameter: binding signal (normalized occupancy)
Give your result in normalized occupancy as a bare value.

>  <ordered-residues>
GAGTCTGA

>  <measured-parameter>
binding signal

>  <measurement-unit>
normalized occupancy

>  <endpoint-value>
0.0726

$$$$
>  <ordered-residues>
GTGTCGTA

>  <measured-parameter>
binding signal

>  <measurement-unit>
normalized occupancy

>  <endpoint-value>
0.0815

$$$$
>  <ordered-residues>
ATGATGCG

>  <measured-parameter>
binding signal

>  <measurement-unit>
normalized occupancy

>  <endpoint-value>
0.0869

$$$$
>  <ordered-residues>
CTCATGGA

>  <measured-parameter>
binding signal

>  <measurement-unit>
normalized occupancy

>  <endpoint-value>
0.0927

$$$$
>  <ordered-residues>
CCGATGAC

>  <measured-parameter>
binding signal

>  <measurement-unit>
normalized occupancy

>  <endpoint-value>
0.0747

$$$$

[Q] Give binding signal (MaxL homodimer (Homo sapiens, UniProt P61244 1-160)) of the following sequence: `ACCTCGAG`
[A] 0.0843

[Q] Ok, now `AGCCCTTG`
[A] 0.0731

[Q] Continue with `AATTATCG`
[A] 0.0772

[Q] Same question for `GATTGCAC` please.
[A] 0.0761

[Q] Can you handle `ATTGTCTG` next?
[A] 0.0774

[Q] How about `CTCATGGC` ?
[A] 0.0965

[Q] Please give the result for `ACTCCAGT` too.
[A] 0.0743

[Q] Now this one: `CTCATGCC`
[A] 0.0954

[Q] `CGAGCGCA` ?
[A] 0.0729

[Q] Same thing, different sequence: `CTCATGTC`
[A] 0.0928

###

study-target: MaxL homodimer (Homo sapiens, UniProt P61244 1-160)
assay: universal protein-binding microarray (PBM); PBS-based mixture, 10 nM His-tagged protein dimer, 2% milk, 200 ng/uL BSA, 50 ng/uL salmon testes DNA, 0.02% TX-100; detection with Alexa 488 anti-His antibody;; high values mean tight binding;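 also: fluorescence intensity normalized to that of the highest-ranked 8-mer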
cond: protein: recombinant; tags: C-terminal His-tag (pET21a); chain copies: 2; dsDNA, one strand shown
Whole data set: some 33,000 sequences, median “normalized occupancy” near 0.075, cut for the highest 2% near 0.095. The list comes from a sample in which the highest values are over-represented; it also holds close analogues and randomly drawn sequences.
Binning of binding signal into classes: low end (below 0.08 normalized occupancy), middle (0.08 normalized occupancy to below 0.09 normalized occupancy), high end (0.09 normalized occupancy or more)

Recorded results for 5 sequences are shown here.
>  <ordered-residues>
ATATGTTC

>  <class-label>
middle

$$$$
>  <ordered-residues>
CAAGTGTG

>  <class-label>
middle

$$$$
>  <ordered-residues>
CACAGGTG

>  <class-label>
middle

$$$$
>  <ordered-residues>
AACATCTG

>  <class-label>
low end

$$$$
>  <ordered-residues>
CACATGTG

>  <class-label>
high end

$$$$

[Q] Bin this entry: `CGTGCACG`
[A] high end

[Q] Would you mind doing `AGTGCACA` as well?
[A] middle

[Q] Field entry: `ATTCATAA`
[A] middle

###

study-target: MaxL homodimer (Homo sapiens, UniProt P61244 1-160)
assay: universal protein-binding microarray (PBM); PBS-based mixture, 10 nM His-tagged protein dimer, 2% milk, 200 ng/uL BSA, 50 ng/uL salmon testes DNA, 0.02% TX-100; detection with Alexa 488 anti-His antibody;; high values mean tight binding;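 also: fluorescence intensity normalized to that of the highest-ranked 8-mer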
cond: protein: recombinant; tags: C-terminal His-tag (pET21a); chain copies: 2; dsDNA, one strand shown
Whole data set: some 33,000 sequences, median “normalized occupancy” near 0.075, cut for the highest 2% near 0.095. The full list was thinned out, with the highest values kept by preference.
Each entry below carries its reported binding signal.
Express it in normalized occupancy; write the number only.

Record excerpt, results attached:
>  <ordered-residues>
GATGATAA

>  <measurement-unit>
normalized occupancy

>  <binding signal>
0.078

$$$$
>  <ordered-residues>
CCCTGGAA

>  <measurement-unit>
normalized occupancy

>  <binding signal>
0.0745

$$$$
>  <ordered-residues>
ATGTTGCA

>  <measurement-unit>
normalized occupancy

>  <binding signal>
0.0888

$$$$
>  <ordered-residues>
CACGAATG

>  <measurement-unit>
normalized occupancy

>  <binding signal>
0.0777

$$$$
>  <ordered-residues>
CTGAAAAC

>  <measurement-unit>
normalized occupancy

>  <binding signal>
0.0806

$$$$
>  <ordered-residues>
ATCATGTA

>  <measurement-unit>
normalized occupancy

>  <binding signal>
0.0811

$$$$

[Q] Report binding signal for `AATCTAAA` tested on MaxL homodimer (Homo sapiens, UniProt P61244 1-160).
[A] 0.0727

[Q] What would you report for `CGATGATA` ?
[A] 0.0772

[Q] Okay, and `CCAATGCG` ?
[A] 0.0793

[Q] Same read-out for `GAAGTTAC` ?
[A] 0.0721

[Q] Queued: `TTAGTAAA`
[A] 0.0726

[Q] Subsequent entry: `AACAGGAT`
[A] 0.0759

[Q] Same again, this time with `GATGGCCA`
[A] 0.0755

[Q] Thanks! And `CCACGGGC` ?
[A] 0.076

[Q] For `CCACATAA` then?
[A] 0.0799

[Q] Proceed to `CACGGGGG`
[A] 0.101

[Q] How about `ACCATGAA` ?
[A] 0.0755

[Q] Now consider `CCCATGTC` .
[A] 0.0854

[Q] Queued: `ACAGGTCA`
[A] 0.0797

###

study-target: MaxL homodimer (Homo sapiens, UniProt P61244 1-160)
assay: universal protein-binding microarray (PBM); PBS-based mixture, 10 nM His-tagged protein dimer, 2% milk, 200 ng/uL BSA, 50 ng/uL salmon testes DNA, 0.02% TX-100; detection with Alexa 488 anti-His antibody;; high values mean tight binding;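 also: fluorescence intensity normalized to that of the highest-ranked 8-mer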
cond: protein: recombinant; tags: C-terminal His-tag (pET21a); chain copies: 2; dsDNA, one strand shown
Over roughly 33,000 sequences, “normalized occupancy” has its median near 0.075; the highest 2% begin near 0.095. The full list was thinned out, with the highest values kept by preference.
Form field: binding signal (one value per entry).
In your response, put the unit directly after the numeric value.

Guide cases for binding signal, answers given:
>  <ordered-residues>
CCACGTGC

>  <binding signal>
0.814 normalized occupancy

$$$$
>  <ordered-residues>
ACCTTTAA

>  <binding signal>
0.0744 normalized occupancy

$$$$
>  <ordered-residues>
ATGTGTCA

>  <binding signal>
0.101 normalized occupancy

$$$$
>  <ordered-residues>
CGAATTCC

>  <binding signal>
0.0757 normalized occupancy

$$$$
>  <ordered-residues>
ATAGATGC

>  <binding signal>
0.075 normalized occupancy

$$$$
>  <ordered-residues>
CGACGTGA

>  <binding signal>
0.0883 normalized occupancy

$$$$
>  <ordered-residues>
TCACGTGA

>  <binding signal>
0.19 normalized occupancy

$$$$
>  <ordered-residues>
GCGTGGTA

>  <binding signal>
0.111 normalized occupancy

$$$$
>  <ordered-residues>
AATCATGA

>  <binding signal>
0.0851 normalized occupancy

$$$$
>  <ordered-residues>
ACGTGGTG

>  <binding signal>
0.1 normalized occupancy

$$$$

[Q] What does the record list as binding signal for `CATCTGTC` ?
[A] 0.0856 normalized occupancy

[Q] Could you do the same for `ATCGCATA` , please?
[A] 0.082 normalized occupancy

[Q] Check `CCCGTGAC` too.
[A] 0.0826 normalized occupancy
